# Tested on: Candida albicans ATCC 90028
# PROTOCOL: Antifungal activity (MIC, MFC) against C. albicans
# Type: cell-based
# TEST_CONTEXT: C. albicans ATCC 90028; fungicidal ≤ 4, fungistatic > 4; '-' = No activity
QUANTITY_NAME: MFC/MIC
Lab note: jot down the number only; don't add units.

Solved cases (6 shown):
C[C@@H]1[C@H](O)[C@@H](C)/C=C/C=C/C=C/C=C/C=C/C=C/C=C/[C@H](O[C@@H]2O[C@H](C)[C@@H](O)[C@H](N)[C@@H]2O)C[C@@H]2O[C@](O)(C[C@@H](O)C[C@@H](O)[C@H](O)CC[C@@H](O)C[C@@H](O)CC(=O)O[C@H]1C)C[C@H](O)[C@H]2C(=O)O [Amphotericin B, reference compound] = 1
CN1C(=O)CC2(C1=O)C(c1ccc(Cl)cc1)CN(C)C21c2ccccc2-c2nc3ccccc3nc21 (stereo not shown) [5e] = 1
COc1ccccc1C1CN(C)C2(c3ccccc3-c3nc4ccccc4nc32)C12CC(=O)N(C)C2=O (stereo not shown) [5c] = 1
CN1C(=O)CC2(C1=O)C(c1ccccc1)CN(C)C21c2ccccc2-c2nc3ccccc3nc21 (stereo not shown) [5a] = 1
COc1ccc(C2CN(C)C3(c4ccccc4-c4nc5ccccc5nc43)C23CC(=O)N(C)C3=O)cc1 (stereo not shown) [5d] = 4
COc1ccc(C2CN(C)C3(c4ccccc4-c4nc5ccccc5nc43)C23CC(=O)N(C)C3=O)cc1Br (stereo not shown) [5k] = 1

IN: Given the entry CN1C(=O)CC2(C1=O)C(c1ccc(F)cc1)CN(C)C21c2ccccc2-c2nc3ccccc3nc21 (stereo not shown) [5g] , report its measured MFC/MIC.
OUT: 1

IN: Given the entry COc1ccc(C2CN(C)C3(c4ccccc4-c4nc5ccccc5nc43)C23CC(=O)N(C)C3=O)cc1OC (stereo not shown) [5j] , report its measured MFC/MIC.
OUT: 2

IN: Given the entry CN1C(=O)CC2(C1=O)C(c1ccc(O)c(Br)c1)CN(C)C21c2ccccc2-c2nc3ccccc3nc21 (stereo not shown) [5l] , report its measured MFC/MIC.
OUT: 8

IN: Given the entry CN1C(=O)CC2(C1=O)C(c1ccc(Br)cc1)CN(C)C21c2ccccc2-c2nc3ccccc3nc21 (stereo not shown) [5f] , report its measured MFC/MIC.
OUT: 1

* * *

Parameter: IC50. Scope: all listed entries.
# PROTOCOL: Radical scavenging activity ABTS
# TEST_CONTEXT: ABTS radical scavenging
Note: state the figure and append the unit.

Solved cases (4 shown):
COc1ccccc1C1CN(C)C2(c3ccccc3-c3nc4ccccc4nc32)C12CC(=O)N(C)C2=O (centres unmarked) [5c] = 7.03 µM
CN1C(=O)CC2(C1=O)C(c1cc(Br)c(O)c(Br)c1)CN(C)C21c2ccccc2-c2nc3ccccc3nc21 (centres unmarked) [5m] = 14.6 µM
CN1C(=O)CC2(C1=O)C(c1ccc(F)cc1)CN(C)C21c2ccccc2-c2nc3ccccc3nc21 (centres unmarked) [5g] = 7.19 µM
CN1C(=O)CC2(C1=O)C(c1ccc(O)c(Br)c1)CN(C)C21c2ccccc2-c2nc3ccccc3nc21 (centres unmarked) [5l] = 15.2 µM

IN: Given the entry CN1C(=O)CC2(C1=O)C(c1ccc(Br)cc1)CN(C)C21c2ccccc2-c2nc3ccccc3nc21 (centres unmarked) [5f] , report its measured IC50.
OUT: 18.1 µM

IN: Given the entry Cc1ccc(C2CN(C)C3(c4ccccc4-c4nc5ccccc5nc43)C23CC(=O)N(C)C3=O)cc1 (centres unmarked) [5b] , report its measured IC50.
OUT: 57.5 µM

IN: Given the entry CN1C(=O)CC2(C1=O)C(c1ccccc1)CN(C)C21c2ccccc2-c2nc3ccccc3nc21 (centres unmarked) [5a] , report its measured IC50.
OUT: 49.2 µM
